procedure-details: restored growth of temperature-sensitive Mot1-301 yeast – S. cerevisiae, ATP luminescence, 38.5C, SUMOylation pathway inhibitor project, primary screen (AID 2716)
reported-conditions: S. cerevisiae Mot1-301 growth rescue, at 18.8 µM, percent above DMSO median, 100 means doubled
Hit rate of the full screen: of about 320,000 compounds, about 3,300 (1%) were called active.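 The calls were made as follows: active = every valid replicate shows activation above 250% relative to neutral control wells; inactive = the rest, any valid replicate at or below 250%.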 The sample holds actives, similar compounds and a random draw of the others, so the mix is not that of the screen.
Return exactly one item of active, inactive

**Query** Record lookup: outcome of this test for Cc1ccccc1-c1nc(CS(=O)(=O)CC(=O)NC(C)c2ccccc2)c(C)o1 (configuration not stated) ?
**Result** inactive

**Query** Record lookup: outcome of this test for CCOC(=O)c1ccccc1N1C(=O)C2Sc3[nH]c(=O)sc3C(/C=C/c3ccccc3)C2C1=O (configuration not stated) ?
**Result** inactive

**Query** Record lookup: outcome of this test for COc1ccc(CNC(=O)COc2cccnc2[N+](=O)[O-])cc1 ?
**Result** inactive

**Query** Record lookup: outcome of this test for CCN1CCN(c2sc(S(C)(=O)=O)nc2S(=O)(=O)c2ccc(Cl)cc2)CC1 ?
**Result** inactive

**Query** Record lookup: outcome of this test for O=C(NNC(=O)c1ccc(-n2cncn2)c([N+](=O)[O-])c1)c1ccccc1 ?
**Result** inactive

**Query** Record lookup: outcome of this test for CC1CCN(Cc2nc3c(c(=O)n(C)c(=O)n3C)n2CCc2ccccc2)CC1 ?
**Result** active

**Query** Record lookup: outcome of this test for COC(=O)CCSc1nccn1Cc1ccccc1 ?
**Result** inactive

**Query** Record lookup: outcome of this test for Cc1cc(C(=O)NNC(=O)c2ccccc2O)c(C)o1 ?
**Result** inactive

**Query** Record lookup: outcome of this test for CC(C)C(NC(=O)c1c(F)cccc1F)C(=O)NNC(=O)c1ccccc1 (configuration not stated) ?
**Result** inactive

**Query** Record lookup: outcome of this test for CC(C)c1cc(C(=O)O)n[nH]1 ?
**Result** inactive

**Query** Record lookup: outcome of this test for Cn1c(=O)n(C)c2cc(C(=O)Nc3ccc(Br)cc3)ccc21 ?
**Result** inactive

**Query** Record lookup: outcome of this test for Cc1ccc(N(C(=O)c2ccc(S(=O)(=O)N(C)C)cc2)C2C=CS(=O)(=O)C2)cc1 (configuration not stated) ?
**Result** inactive

**Query** Record lookup: outcome of this test for COc1cccc(OC)c1C(=O)Nc1ccc2c(c1)n(C)c(=O)n2C ?
**Result** active

**Query** Record lookup: outcome of this test for COC(=O)c1cc2occc2n1Cc1nc(-c2ccccc2C)oc1C ?
**Result** active

**Query** Record lookup: outcome of this test for CC(=C/c1ccccc1)/C=N/NC(=O)c1cc(C)oc1C ?
**Result** inactive

**Query** Record lookup: outcome of this test for CC(C)c1cc(C(=O)N/N=C/C(Br)=C/c2ccccc2)n[nH]1 ?
**Result** active

**Query** Record lookup: outcome of this test for O=C(Nc1cccc(F)c1)NC1CCCCCCC1 ?
**Result** inactive

**Query** Record lookup: outcome of this test for Cc1ccc(-c2cc(C(=O)N/N=C/C=C/c3ccccc3)n[nH]2)o1 ?
**Result** inactive

**Query** Record lookup: outcome of this test for COc1cc(-c2nc(S(=O)(=O)c3ccc(Cl)cc3)c(N(C)C)o2)cc(OC)c1OC ?
**Result** inactive

**Query** Record lookup: outcome of this test for COc1ccc(Cc2nnc(SCC(=O)N(c3ccccc3)C(C)C)n(N)c2=O)cc1 ?
**Result** inactive

**Query** Record lookup: outcome of this test for Cc1ccccc1-c1nc(CS(=O)(=O)CC(=O)N2CCc3ccccc3C2)c(C)o1 ?
**Result** inactive

**Query** Record lookup: outcome of this test for CC(C)CCNC(=O)c1cccnc1Sc1ccccc1 ?
**Result** inactive

---

procedure-details: restored growth of temperature-sensitive Mot1-301 yeast – S. cerevisiae, ATP luminescence, 38.5C, SUMOylation pathway inhibitor project, primary screen (AID 2716)
reported-conditions: S. cerevisiae Mot1-301 growth rescue, at 18.8 µM, active compounds read high, percent above DMSO median, 100 means doubled
The campaign covered roughly 320,000 compounds. About 3,300 (1%) were called active. The entries come from a sample that favours actives as a whole.
Please enter Fulfilled where growth rescue is greater than or equal to 10%, and Not fulfilled where it is lower.

**Query** For this compound, is measured growth rescue 10% or higher? COc1ccnc2c1c(=O)n(Cc1cccc(F)c1)c(=O)n2C
**Result** Fulfilled

**Query** For this compound, is measured growth rescue 10% or higher? Cc1cc(C)c2c(Cn3ccnc3)cc(=O)oc2c1
**Result** Fulfilled

**Query** For this compound, is measured growth rescue 10% or higher? CCCCc1cc(=O)oc2cc(C)cc(OCc3nn[nH]n3)c12
**Result** Fulfilled

**Query** For this compound, is measured growth rescue 10% or higher? Cc1ccc(S(=O)(=O)n2cnc3ccccc32)c(C)c1
**Result** Not fulfilled

**Query** For this compound, is measured growth rescue 10% or higher? Cc1cc(=O)oc2c1c(C)nn2-c1ccc(Cl)cc1
**Result** Not fulfilled

**Query** For this compound, is measured growth rescue 10% or higher? O=[N+]([O-])/C=C/c1ccc2c(ccn2Cc2ccccc2)c1
**Result** Fulfilled

**Query** For this compound, is measured growth rescue 10% or higher? Cc1ccc(C)c(S(=O)(=O)n2cnc3ccccc32)c1
**Result** Fulfilled

**Query** For this compound, is measured growth rescue 10% or higher? CCOC(=O)c1cnc2ccc(F)cc2c1Nc1ccc2c(c1)OCCO2
**Result** Fulfilled

**Query** For this compound, is measured growth rescue 10% or higher? COCCn1c(Cc2cccn2C)nnc1SCC(=O)Nc1nccs1
**Result** Not fulfilled

**Query** For this compound, is measured growth rescue 10% or higher? COc1ccccc1-c1nn(Cc2ccccc2)cc1C(=O)N1CCN(c2ncccn2)CC1
**Result** Not fulfilled

---

procedure-details: restored growth of temperature-sensitive Mot1-301 yeast – S. cerevisiae, ATP luminescence, 38.5C, SUMOylation pathway inhibitor project, primary screen (AID 2716)
reported-conditions: S. cerevisiae Mot1-301 growth rescue, at 18.8 µM, percent above DMSO median, 100 means doubled
The campaign covered roughly 320,000 compounds. About 3,300 (1%) were called active.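 How the source made its calls: active means every valid replicate shows activation above 250% relative to neutral control wells; inactive means the rest, any valid replicate at or below 250%.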 This is one part of a sample in which actives are shown more often than they occur.
Return exactly one item of active, inactive

**Query** Record lookup: outcome of this test for Cc1cc(C(F)(F)F)n2ncc(-c3ccccc3)c2n1 ?
**Result** inactive

**Query** Record lookup: outcome of this test for O=C(CNS(=O)(=O)c1ccc2c(c1)OCCCO2)N1CCN(c2ccc(F)cc2)CC1 ?
**Result** inactive

**Query** Record lookup: outcome of this test for CCCCOC(=O)c1ccc(N2C(=O)CC(N3CCN(C/C=C/c4ccccc4)CC3)C2=O)cc1 (stereo unspecified) ?
**Result** inactive

**Query** Record lookup: outcome of this test for NC1=C([N+](=O)[O-])C(c2ccccc2)C2=C(CCCC2=O)O1 (stereo unspecified) ?
**Result** inactive

**Query** Record lookup: outcome of this test for COc1ccc(CCNC(=O)C(=O)NCC2OCCN2S(=O)(=O)c2ccc(OC)c(C)c2)cc1 (stereo unspecified) ?
**Result** inactive

**Query** Record lookup: outcome of this test for Cc1ccc(CC2CC(=O)N(c3cc(C)ccc3C)C2=O)cc1 (stereo unspecified) ?
**Result** inactive

**Query** Record lookup: outcome of this test for O=C(NCc1ccccc1Cl)NC(=O)c1csc([N+](=O)[O-])c1 ?
**Result** inactive

**Query** Record lookup: outcome of this test for CCn1cc(CN2CCN(CC(C)(C)C)C(CCO)C2)c2ccccc21 (stereo unspecified) ?
**Result** inactive

**Query** Record lookup: outcome of this test for CCc1ccc(S(=O)(=O)N/N=C\c2ccc([N+](=O)[O-])o2)cc1 ?
**Result** inactive

**Query** Record lookup: outcome of this test for COC(=O)c1cc2nc(-c3ccccc3)cc(C(F)(F)F)n2n1 ?
**Result** active

**Query** Record lookup: outcome of this test for COc1ccc(S(=O)(=O)N2CCOC2CNC(=O)C(=O)NCc2ccncc2)cc1OC (stereo unspecified) ?
**Result** inactive

**Query** Record lookup: outcome of this test for COc1ccc(CCNC(=O)Cc2ccc(C)cc2)cc1OC ?
**Result** inactive

**Query** Record lookup: outcome of this test for CCCN=C1NC(=O)C(CC(=O)NCCc2ccc(OC)c(OC)c2)S1 (stereo unspecified) ?
**Result** active

**Query** Record lookup: outcome of this test for CCOC(=O)c1ccc(N2C(=O)CC(N(C)Cc3ccccc3)C2=O)cc1 (stereo unspecified) ?
**Result** inactive

**Query** Record lookup: outcome of this test for CCCCCCC(=O)N(O)C1CC(=O)N(c2ccccc2)C1=O (stereo unspecified) ?
**Result** active

**Query** Record lookup: outcome of this test for CCOc1ccc(S(=O)(=O)NCCC(=O)N2CCCCCCC2)cc1 ?
**Result** inactive

**Query** Record lookup: outcome of this test for CCCc1[nH]nc2c1C(C1CC=CCC1)C(C#N)=C(N)O2 (stereo unspecified) ?
**Result** inactive

**Query** Record lookup: outcome of this test for O=C(Nc1nccs1)C1CCN(S(=O)(=O)c2ccc(Cl)c(C(F)(F)F)c2)CC1 ?
**Result** active

**Query** Record lookup: outcome of this test for O=C(c1ccccc1)N1CCN(C(=O)c2cc3nc(-c4ccccc4)cc(C(F)(F)F)n3n2)CC1 ?
**Result** inactive

**Query** Record lookup: outcome of this test for COc1ccc(-c2cn(-c3ccc(C)cc3)c(=O)n2CC(=O)Nc2ccc(OC)c(OC)c2)cc1 ?
**Result** active

**Query** Record lookup: outcome of this test for COc1ccc(NC(=O)Cn2c(-c3ccc(OC)cc3)cn(-c3ccc(C)cc3)c2=O)cc1 ?
**Result** inactive
